Numbers sourced from patent US11447503B2.

Assayed system: human GluN1/GluN2B NMDA receptors (Homo sapiens, UniProt Q05586+Q13224)
Sequence (Q13224 27-1484, other chains not shown): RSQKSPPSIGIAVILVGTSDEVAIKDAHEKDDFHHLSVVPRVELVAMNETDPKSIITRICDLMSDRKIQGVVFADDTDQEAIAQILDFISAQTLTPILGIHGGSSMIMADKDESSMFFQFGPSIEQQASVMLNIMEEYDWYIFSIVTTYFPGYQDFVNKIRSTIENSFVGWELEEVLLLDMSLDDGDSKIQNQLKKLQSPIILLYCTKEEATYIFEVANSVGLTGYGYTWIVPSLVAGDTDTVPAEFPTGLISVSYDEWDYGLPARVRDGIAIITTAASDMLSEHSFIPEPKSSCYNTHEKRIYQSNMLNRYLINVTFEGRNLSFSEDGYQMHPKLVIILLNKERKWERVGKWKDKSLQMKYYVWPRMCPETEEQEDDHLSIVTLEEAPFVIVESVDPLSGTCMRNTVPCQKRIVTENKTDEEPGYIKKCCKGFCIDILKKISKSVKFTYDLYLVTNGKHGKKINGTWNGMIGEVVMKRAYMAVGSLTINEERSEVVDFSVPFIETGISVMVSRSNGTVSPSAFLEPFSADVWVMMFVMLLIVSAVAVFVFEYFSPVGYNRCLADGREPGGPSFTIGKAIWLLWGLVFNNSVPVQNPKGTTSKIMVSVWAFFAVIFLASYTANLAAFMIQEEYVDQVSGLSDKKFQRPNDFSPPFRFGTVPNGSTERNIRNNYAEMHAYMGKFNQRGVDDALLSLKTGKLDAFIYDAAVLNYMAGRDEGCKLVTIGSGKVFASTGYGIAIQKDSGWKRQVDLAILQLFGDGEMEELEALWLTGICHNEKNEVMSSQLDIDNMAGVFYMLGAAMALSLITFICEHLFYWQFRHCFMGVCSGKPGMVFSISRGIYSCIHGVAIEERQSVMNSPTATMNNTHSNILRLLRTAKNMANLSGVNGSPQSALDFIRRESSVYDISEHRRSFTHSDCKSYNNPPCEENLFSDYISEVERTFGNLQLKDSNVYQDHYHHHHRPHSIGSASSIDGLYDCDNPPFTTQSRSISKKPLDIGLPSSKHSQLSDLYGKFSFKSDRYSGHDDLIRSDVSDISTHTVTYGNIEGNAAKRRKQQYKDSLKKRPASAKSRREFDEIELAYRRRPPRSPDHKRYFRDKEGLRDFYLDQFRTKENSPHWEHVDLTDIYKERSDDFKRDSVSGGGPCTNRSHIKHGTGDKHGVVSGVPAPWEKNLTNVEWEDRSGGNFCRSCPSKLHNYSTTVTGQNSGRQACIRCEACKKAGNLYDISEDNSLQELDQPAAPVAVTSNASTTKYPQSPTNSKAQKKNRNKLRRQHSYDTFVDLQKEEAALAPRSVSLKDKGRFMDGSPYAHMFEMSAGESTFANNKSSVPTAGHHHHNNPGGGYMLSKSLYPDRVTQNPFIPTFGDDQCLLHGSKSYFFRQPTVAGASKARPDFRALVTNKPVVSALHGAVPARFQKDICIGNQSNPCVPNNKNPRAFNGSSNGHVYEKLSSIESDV
Test name: Cell-based calcium flux (FLIPR) assay on cloned human GluN1/GluN2B ion channels expressed in mammalian cells
Experimental parameters: standard assay; glutamate ~EC40, 10 μM glycine; stable Tet-On cell line
Where a name gives a salt, the structure may show the parent alone.
Classify: true (1) when IC50 is strictly less than 20 nM; false (0) when IC50 is not.

Molecule | Group label
[2H]C([2H])(c1cc(-c2ccc(F)c(C(F)F)c2)cnc1C)N1CCCOC1=O [Example 58] | false (0)
O=C1OC2(CNC2)CN1Cc1cncc(-c2ccc(F)c(C(F)F)c2)c1 [Example 21, Trifluoroacetate Salt] | false (0)
Cc1ncc(-c2ccc(F)c(C(F)F)c2)cc1CN1CCOC1=O [Example 90] | true (1)
COc1ncc(-c2ccc(F)c(OC(F)F)c2)cc1CN1C(=O)OC[C@@H]1C [Example 117] | false (0)
CC(c1cncc(-c2ccc(F)c(C(F)F)c2)c1)N1CCOC1=O (racemic) [Example 60] | false (0)
Cc1cc(-c2cncc(CN3CCOC3=O)c2)ccc1F [Example 44] | true (1)
Cc1ncc(-c2ccc(F)c(OC(F)F)c2)cc1CN1CC2(CCC2)OC1=O [Example 85] | false (0)
O=C1OCCCN1Cc1cc(-c2ccc(F)c(OC(F)F)c2)cnc1C(F)F [Example 126] | true (1)
Cc1ncc(-c2ccc(Cl)s2)cc1CN1CCOC1=O [Example 98] | false (0)
CC1(C)CCN(Cc2cncc(-c3ccc(F)c(OC(F)F)c3)c2)C(=O)O1 [Example 10] | false (0)
CC1COC(=O)N1Cc1cncc(-c2ccc(F)c(C(F)F)c2)c1 (racemic) [Example 25] | false (0)
